Target: PTP1B (Homo sapiens, UniProt P18031)
Construct: using the catalytic core of a human recombinant PTP as the enzyme
Sequence (P18031 3-277 limits assumed): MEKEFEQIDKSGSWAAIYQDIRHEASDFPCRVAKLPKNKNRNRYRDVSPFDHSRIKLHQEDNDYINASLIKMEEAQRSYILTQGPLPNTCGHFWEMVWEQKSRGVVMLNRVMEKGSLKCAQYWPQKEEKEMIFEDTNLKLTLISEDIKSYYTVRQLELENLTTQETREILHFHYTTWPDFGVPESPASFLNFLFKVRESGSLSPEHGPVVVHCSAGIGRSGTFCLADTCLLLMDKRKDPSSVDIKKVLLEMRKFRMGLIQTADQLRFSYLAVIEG
Test: PTP Enzyme Assay (DiFMUP), PTP1B
Details: catalytic core of human recombinant PTP; 5 μM DiFMUP; 30 minutes at room temperature; read-out: IC50 value in respect of PTP1B
Observed Property: pIC50
Numbers only, as −log10 of the molar value.

Look at this molecule and give its reported pIC50. O=C(NCc1ccc(Oc2ccccc2)cc1)c1ccc(CN(C(=O)CCC2CCCC2)c2ccc(O)c(C(=O)O)c2)cc1 6.00
